Tested on: CAKI-1 renal
Protocol text: NCI-60 one-dose screen, 48 h
Applied conditions: 10 µM unless noted
Compounds without any hit were thinned out: in the full panel of roughly 83,000, 20% have a hit. Active and inactive are the calls of the source. The calls were made as follows: active = growth percent below 10; inactive = the rest.
// allowed return values: y (active), n (inactive)

// return assay outcome for O=C(NCc1ccc([N+](=O)[O-])cc1)Nc1ccc(S(=O)(=O)F)cc1
n

Dear all, I need the recorded test outcome for N#C[Se]CCCNS(=O)(=O)C1CC2C=CC1C2 (stereo not given) , thank you.
y

How did this test come out for CC(=O)O[C@H]1CCC2C3CCC4=C/C(=N/O)CCC4(C)C3CCC21C (stereo not given in full) ?
n

What was the test verdict on COc1ccc(CN2CCN(Cc3ccccc3)CC2)c(O)c1 ?
n

Would you mind telling me which call this test gave COC(=O)C1CC2c3ccccc3C1c1ccccc12 (stereo not given) ?
n

Look up the recorded call for FC(F)=C(F)c1ccccc1 in this test.
n

Please share the test call associated with OC1CCCCC1N1CCC(c2ccccc2)CC1 (stereo not given) .
n

// param item: CC1(C)N=C(N)N=C(N)N1c1ccc(OCCCCNC(=O)c2ccc(S(=O)(=O)F)cc2)c(Cl)c1 ; yields the recorded call
n

Give the logged outcome of this assay for the following compound: Oc1ccc(Br)cc1CN1CCN(Cc2ccc(Cl)cc2)CC1
n

Would you mind telling me which call this test gave C[C@]12CCC(=O)CC1CC[C@@H]1C2CC[C@@]2(C)C1CC[C@@H]2OC(=O)CC[Se][Se]CCC(=O)O[C@H]1CCC2[C@@H]3CCC4CC(=O)CC[C@]4(C)C3CC[C@@]21C (stereo not given in full) ?
n

====

System: OVCAR-5 ovarian
Protocol text: NCI-60 one-dose screen, 48 h
Applied conditions: 10 µM unless noted
Procedure: Growth inhibition of the OVCAR-5 human tumor cell line is measured as a screen for anti-cancer activity. Cells are grown in 96 well plates and exposed to the test compound for 48 hours. Compounds are tested at a single concentration, which is 10^-5 M for most compounds. The reported endpoint is percent growth (GI% or GIPRCNT), where numbers from 0 - 100% represent growth inhibition, and numbers from -100% - 0 represent cell death. For example, a value of 40 represents 60% growth inhibition. […]
This is part of a sample that, as a whole, favours compounds with a hit. Of some 83,000 tested, about 20% had one in any assay. Activity calls are given as the source filed them. Rule for the calls: active = growth percent below 10; inactive = the rest.
Pick one: active, inactive

Fill in: this test's call for C[C@]12CC[C@H]3[C@@H](C[C@@H]4N=C(c5ccc(O)cc5)S[C@@]45C[C@H](O)CC[C@]35C)[C@@H]1CC[C@@H]2O is ___
inactive

Any idea what this test logged for O=[N+]([O-])c1ccc(/C=C/C=C/c2ccc(S(=O)(=O)F)cc2)c(Cl)c1 ?
inactive

Hello, I am checking results. What call was entered for CSc1ccccc1NP1(=O)OCC(C)([N+](=O)[O-])CO1 (stereo unspecified) ?
inactive

# fetch the recorded call for CC1(C)CC(=O)CC(C)(C)N1N=O here
inactive

Which outcome did this test record for the compound ClCCN(CCCl)c1ccc(C=NCCc2c[nH]c3ccccc23)cc1 ?
inactive

State the result this test recorded for Nc1ccc(N)c2c1Oc1ccccc1O2 .
inactive

For CC12CC[C@H](O)C=C1/C(=N/O)CC1C2CCC2(C)C1CC[C@@H]2O (stereo partly specified) , which call appears in the assay record?
inactive

Given COc1cc(/C=C\c2cc(OC)c(OC)c(OC)c2)cc(N/C=C\C(=O)c2ccc(OC(F)(F)F)cc2)c1OC , state the outcome it received in this test.
inactive

Hi, do you know how Cc1nnc([S-])s1.[Au+].c1ccc([PH+](c2ccccc2)c2ccccc2)cc1 came out in this test?
inactive

Hey, what did the test say about COc1cc(C2CC(=O)Nc3nc(N)[se]c32)cc(OC)c1OC (stereo unspecified) ?
inactive

For this compound, state the assay outcome: Cc1ccc(N)cc1[As]=[As]c1cc(N)ccc1C (stereo unspecified)
active

Could you kindly confirm the outcome this assay logged for CCC(C)[C@H]1O[C@]2(C=C[C@@H]1C)C[C@@H]1C[C@@H](C/C=C(\C)[C@@H](OC3C[C@H](OC)C(O[C@H]4C[C@H](OC)[C@@H](O)[C@H](C)O4)[C@H](C)O3)[C@@H](C)/C=C/C=C3\CO[C@@H]4[C@H](O)C(C)=C[C@@H](C(=O)O1)[C@]34O)O2 (stereo partly specified) ?
active

What was the test verdict on NC(=O)NC(=O)CI ?
inactive

# lookup: test call for COC1=CC(=O)OC(CCc2ccc3c(c2)OCO3)C1 (stereo unspecified)
inactive

Tell me the recorded outcome of this test for O=CN1N=C(c2ccccc2)CC1c1sc(N(CCCl)CCCl)nc1Cl (stereo unspecified) .
inactive

Answer briefly: the call reported for CC(=O)C1CCC2C3CC=C4CC(OC(=O)Cc5ccc(N(CCCl)CCCl)cc5)CCC4(C)C3CCC12C (stereo unspecified) in this assay.
inactive

Could you kindly confirm the outcome this assay logged for C=CC(O)CN1CC1CC (stereo unspecified) ?
inactive

Dear colleague, could you share the recorded outcome for O=S(=O)(F)c1ncnc2nc[nH]c12 when you have a moment?
inactive

Check the results log: what was the call for CNC(=O)O/N=C(/C)c1ccc(Cl)cc1 ?
inactive

Entry c1cnc2c(c1)ccc1ncccc12 : call = ?
inactive

Name the outcome recorded for C1CN1c1nc(N2CC2)nc(N2CC2)n1 in the assay.
inactive

====

Kindly supply the reported growth values for the records listed here.
System: SR leukemia
Protocol text: NCI-60 one-dose screen, 48 h (100 = growth as untreated, 0 = no growth, -100 = all killed)
Applied conditions: 10 µM
Compounds without any hit were thinned out: in the full panel of roughly 83,000, 20% have a hit.
Please give a number only; it is taken to be in %.

Tell me the measured growth of NC(Cc1ccc(O)cc1)C(=O)N/N=C/c1ccc(N(CCCl)CCCl)cc1 (stereo unspecified) , please.
18

Data request, read-out growth, for CSc1ccccc1NP1(=O)OCC(C)([N+](=O)[O-])CO1 (stereo unspecified)
91.3

Look at this compound and give its reported growth. CC(C)CCC1(CCO)C(=O)NC(=S)NC1=O
114

Looking for the measured growth of CC(=O)[O][Hg][CH2]C1(C)COC(C)([CH2][Hg][O]C(C)=O)CO1 (stereo unspecified) , can you help?
9.98

Param item = O=[As]c1ccc(C(=O)c2ccc(Oc3ccccc3)cc2)cc1 (stereo unspecified) ; retrieve measured growth.
-23.9

Would you mind telling me what growth value was observed for CCCCOC(=O)c1ccccc1C(=O)O.CCCCOC(=O)c1ccccc1C(=O)O.[Cu+2] ?
92.7

Looking for the measured growth of O=C(O)c1cccc(CCl)c1 , can you help?
89.5

Report growth for CC(C)C1c2ccc(O)cc2Oc2nc(N)c(C#N)c(N)c21 (stereo unspecified) please.
97.1

Data request, read-out growth, for C[C@]12CC[C@H](OC3OC(O)C(O)C(O)C3O)C=C1CCC1C2CC[C@]2(C)[C@@H](c3ccc(=O)oc3)CC[C@]12O (stereo partly specified)
-42.7

Requested field: growth. Item: Oc1ccccc1OB(Oc1ccccc1O)N(CCCl)CCCl
36.5

Consider the compound shown here: CC(/C=N/N=C(N)N)=N/N=C(N)N What is its recorded growth?
78.4

====

Test system: SF-268 CNS
Protocol text: NCI-60 one-dose screen, 48 h
Applied conditions: 10 µM unless noted
This is part of a sample that, as a whole, favours compounds with a hit. Of some 83,000 tested, about 20% had one in any assay. Activity calls are given as the source filed them. The calls were made as follows: active = growth percent below 10; inactive = the rest.
Write down the outcome that applies. Available outcomes: 1 (active), -1 (inactive)

What classification did N#[N+]c1nc2nc(N)[nH]c(=O)c2[nH]1 end up with in this test?
-1

Query: recorded result category for CC1(C)N=C(N)N=C(N)N1c1ccc(CCCCc2ccc(Cl)cc2S(=O)(=O)F)c(Cl)c1 in this test
-1

What call does the record list for CC(C)CCC[C@@H](C)[C@H]1CC[C@H]2[C@@H]3CC=C4C[C@@H](OC(=O)Cc5ccc(N(CCCl)CCCl)cc5)CC[C@]4(C)[C@H]3CC[C@]12C ?
-1

Hey, what did the test say about NC(=O)C(Cl)Cl ?
-1

Outcome logged for ClCCN(CCCl)c1ccc(C=NCCc2c[nH]c3ccccc23)cc1 in this assay:
-1

So what was the verdict on O=C(CCl)NCNC(=O)CCl in this test?
-1

Give the logged outcome of this assay for the following compound: CN(C)P1(N(C)C)=NP(N(C)C)(N(C)C)=NP(N(C)C)(N(C)C)=N1
-1

For O=C1NC(=S)NC(=O)C1=Cc1ccccc1 , what call appears in the results of this test?
-1

Answer briefly: the call reported for CC1=C(SCCC(=O)OCC(=O)NCCC[Te]c2ccccc2)C(=O)c2ccccc2C1=O in this assay.
1

Call for entry CCCCCN(CCCCC)CC(O)c1ccc(C)c(Cl)c1 (stereo not drawn) :
-1

// param item: Cc1cccc(N=C2c3cc([N+](=O)[O-])ccc3-c3c2cc([N+](=O)[O-])cc3[N+](=O)[O-])c1 ; yields the recorded call
-1

Entry C=CCC1(CC)C(=O)NC(=S)NC1=O : call = ?
-1

Per the assay record, what outcome was assigned to C=CCc1ccc(OC(=O)Cc2ccccc2)c(OC)c1 ?
-1

Recorded call for S=P(NC1CCCCC1)(N1CC1)N1CC1 ?
-1

What was the test verdict on O=[N+]([O-])c1ccccc1N1CCNCC1 ?
-1

Given C[C@]12CCc3sc(-c4ccc(Cl)cc4)nc3C1=CC[C@@H]1[C@@H]2CC[C@]2(C)C(=O)CC[C@@H]12 , state the outcome it received in this test.
-1

GET /call?item= ClCCN(CCCl)c1nc(Cl)c(C2CC(c3ccccc3)=NN2c2ccccc2)s1 (stereo not drawn) returns the recorded outcome of this test.
-1

Outcome logged for S=P(N1CCCCCC1)(N1CC1)N1CC1 in this assay:
-1

Record lookup: outcome of this test for O=C1NC(=O)C(O)(C2(O)C(=O)NC(=O)NC2=O)C(=O)N1 ?
-1

What did this assay record as the result for Cc1cc(C)nc(C)c1.[Cl][Hg][Cl] ?
-1

Test call, this compound: COc1cc(C2=NN(c3ccccc3)C(c3sc(N(CCCl)CCCl)nc3Cl)C2)cc(OC)c1OC (stereo not drawn)
-1

For O=S(=O)(F)c1ncnc2nc[nH]c12 , what call appears in the results of this test?
-1

# fetch the recorded call for c1ccc([As]=[As]c2ccccc2)cc1 (stereo not drawn) here
1
